assay: Primary qHTS for inhibitors of nuclear receptor binding SET domain protein 2 (NSD2) in an RCH-ACV wild type WT cells (2C) (AID 1645877); settings: RCH-ACV (leukaemia line) NSD2 WT (2C) viability, CellTiter-Glo, 72 h; series mostly up to 44.9 µM; further: nearly all actives have a fitted effect of over 70% in size
Records with an inconclusive call do not appear. Activity calls are given as the source filed them. The call rests on the fitted dose curve; in most records, active means well fitted inhibition curve with a large enough effect; inconclusive means small, poorly fitted or top-dose-only effect; inactive means no such curve, though single readings can be large or run the other way.
Outcome codes: active, inactive

Molecule | Discrete label
O=c1ccc2ccccc2o1 | inactive
CCCCCCCCCCCCCCCC[N+](C)(C)CCN(Cc1ccc(OC)cc1)c1ncccn1 | active
C[n+]1c2cc(N)ccc2cc2ccc(N)cc21 (tested in a mixture with another compound) | active
CC(CCc1ccccc1)NCC(O)c1ccc(O)c(C(N)=O)c1 (configuration not stated) | inactive
O=C(Nc1ccc(Oc2ccc(Cl)cc2)c(Cl)c1)c1cc(I)cc(I)c1O | inactive
CN(C)C(=S)SC(=S)N(C)C | active
C[C@]12CCC(=O)C=C1CC[C@H]1[C@@H]3CC[C@](O)(C(=O)CO)[C@@]3(C)C[C@H](O)[C@@]12F | active
O=C(N/N=C/c1ccccc1O)c1ccncc1 | active
CCCCc1nc(Cl)c(CO)n1Cc1ccc(-c2ccccc2-c2nn[nH]n2)cc1 | inactive
CCOC(=O)c1cccc(N)c1 | inactive
CCCCCCCCCCCCCCCCCC(=O)OCC(O)CO (configuration not stated) | inactive
COc1c2occc2c(OC)c2c(=O)cc(C)oc12 | inactive
NC(CO)(CO)CO | inactive
COC(=O)[C@@H]1CC2=CC(=O)CC[C@]2(C)[C@@]23O[C@@H]2C[C@@]2(C)[C@@H](CC[C@@]24CCC(=O)O4)[C@H]13 | inactive
O=C(O)CNC(=O)c1ccccc1 | inactive
CC(=O)OCC(=O)NCCCOc1cccc(CN2CCCCC2)c1 | inactive
CCCCOc1ccc(C(=O)CCN2CCCCC2)cc1 | active

Data credit: PubChem BioAssay (NCATS)
